Overview of recorded Pig IR phosphorylation [EC 50 nM] mean for various binders
Molecular target: Pig IR (pig, UniProt F1SCL0 28-1382)
Experiment: cell-based or functional assay
experimental_readout: Pig IR phosphorylation [EC 50 nM] mean (nM)

1) scl-Fc fusion protein INS023 (Fc fusion) SFVNQHLCGSHLVEALELVCGERGFHYTPKTGSYPGGVGIVEQCCTSICSLSQLENYCGGEAEDLQVGQVELGGGPGAGSLQPEGSLQGGPSVFLFPPKPKDTLMISRTPEVTCVVVDVSHEDPEVKFNWYVDGVEVHNAKTKPREEQYNSTYRVVSVLTVLHQDWLNGKEYKCKVSNKALPAPIEKTISKAKGQPREPQVYTLPPSRDELTKNQVSLTCLVKGFYPSDIAVEWESNGQPENNYKTTPPVLDSDGSFFLYSKLTVDKSRWQQGNVFSCSVMHEALHNHYTQKSLSLSPGGGGGSAESKYGPPCPPCPA; 29.9
2) scl-Fc fusion protein INS007 (Fc fusion) SFVNQHLCGSHLVEALHLVCGERGFAYTDKTGSYPGGVGIVEQCCTSICSLEQLENYCGGEAEDLQVGQVELGGGPGAGSLQPEGSLQGGPSVFLFPPKPKDTLMISRTPEVTCVVVDVSHEDPEVKFNWYVDGVEVHNAKTKPREEQYNSTYRVVSVLTVLHQDWLNGKEYKCKVSNKALPAPIEKTISKAKGQPREPQVYTLPPSRDELTKNQVSLTCLVKGFYPSDIAVEWESNGQPENNYKTTPPVLDSDGSFFLYSKLTVDKSRWQQGNVFSCSVMHEALHNHYTQKSLSLSPGGGGGSAESKYGPPCPPCPA; 10.8
3) scl-Fc fusion protein INS017 (Fc fusion) SFVNQHLCGSHLVEALHLVCGERGFHYTPKTGSYPGGVGIVEQCCTSICSLSQLENYCGGEAEDLQVGQVELGGGPGAGSLQPEGSLQGGPSVFLFPPKPKDTLMISRTPEVTCVVVDVSHEDPEVKFNWYVDGVEVHNAKTKPREEQYNSTYRVVSVLTVLHQDWLNGKEYKCKVSNKALPAPIEKTISKAKGQPREPQVYTLPPSRDELTKNQVSLTCLVKGFYPSDIAVEWESNGQPENNYKTTPPVLDSDGSFFLYSKLTVDKSRWQQGNVFSCSVMHEALHNHYTQKSLSLSPGGGGGSAESKYGPPCPPCPA; 26.3
4) scl-Fc fusion protein INS019 (Fc fusion) SFVNQHLCGSHLVEALELVCGERGFHYTPKTGSYPGGVGIVEQCCTSICSLSQLEDYCGGEAEDLQVGQVELGGGPGAGSLQPEGSLQGGPSVFLFPPKPKDTLMISRTPEVTCVVVDVSHEDPEVKFNWYVDGVEVHNAKTKPREEQYNSTYRVVSVLTVLHQDWLNGKEYKCKVSNKALPAPIEKTISKAKGQPREPQVYTLPPSRDELTKNQVSLTCLVKGFYPSDIAVEWESNGQPENNYKTTPPVLDSDGSFFLYSKLTVDKSRWQQGNVFSCSVMHEALHNHYTQKSLSLSPGGGGGSAESKYGPPCPPCPA; 43
